Just for reference, PubChem BioAssay (NCI) is where these values come from.

molecules and their reported TGI
# Test system: HOP-92 NSCLC
# method: NCI tumour cell line growth inhibition, 48 h
# value in µM; strip the unit string

{"columns": ["molecule", "units of measure", "result value"],
 "data": [
  ["CC1(C)CC(=O)C(C(=O)Nc2cccs2)=C(O)C1", "µM", 68.2]
]}

Inquiry: Fill: TGI (HOP-92 NSCLC) for this molecule `CCOC(=O)C#Cc1c(C(=O)OCC)nnn1[C@@H]1O[C@H](COC)[C@@H](OC)[C@H]1OC`
Reply text: 7.61

Inquiry: Fill: TGI (HOP-92 NSCLC) for this molecule `O=C(O)CSc1cc(NS(=O)(=O)c2ccc(Br)cc2)c2ccccc2c1O`
Reply text: 31.6

Inquiry: Fill: TGI (HOP-92 NSCLC) for this molecule `CCOC(=O)c1cn(-c2ccc([N+](=O)[O-])cc2)c(=S)n2c1nc1ccccc12`
Reply text: 57.1

Inquiry: Fill: TGI (HOP-92 NSCLC) for this molecule `CCCCCC(=O)OC[n+]1cccc(-c2c(COC(=O)NC(C)C)c(COC(=O)NC(C)C)c3n2CCC3)c1`
Reply text: 77.2

Inquiry: Fill: TGI (HOP-92 NSCLC) for this molecule `C=C(C)c1nc(Oc2ccccc2)nc(Oc2ccccc2)n1`
Reply text: 10.8

Inquiry: Fill: TGI (HOP-92 NSCLC) for this molecule CN(C)CCCC1(c2ccc(F)cc2)OCc2cc(-c3csc4ccccc34)ccc21 (stereo unspecified)
Reply text: 2.95

Inquiry: Fill: TGI (HOP-92 NSCLC) for this molecule `N#C[Se]CCN1C(=O)c2ccccc2C1=O`
Reply text: 3.12

Inquiry: Fill: TGI (HOP-92 NSCLC) for this molecule O=C(CC1(O)C(=O)Nc2c(Cl)cc(Cl)cc21)c1cccc([N+](=O)[O-])c1 (stereo unspecified)
Reply text: 80.9

Inquiry: Fill: TGI (HOP-92 NSCLC) for this molecule `O=C1[C@H](Cc2ccc(O)cc2)N2C(=O)CCN(C(=O)NCc3ccccc3)[C@H]2CN1Cc1cccc2ccccc12`
Reply text: 2.4

Inquiry: Fill: TGI (HOP-92 NSCLC) for this molecule CC1=C(C(=O)Nc2ccc3[nH]ncc3c2)C(c2ccc(F)cc2)N=C(c2ccc(C(F)(F)F)nc2)N1 (stereo unspecified)
Reply text: 7.6

* * *

# Tested on: OVCAR-5 ovarian
# method: NCI tumour cell line growth inhibition, 48 h
molecules and their reported TGI

{"columns": ["molecule", "TGI"],
 "data": [
  ["O=C(NC1CCCCC1)c1n[nH]nc1Cl", "> 100 µM"],
  ["O=[N+]([O-])c1ccc2c3c1[C@@H]1O[C@@H]1c1cccc(c1-3)[C@@H]1O[C@H]21", "31.3 µM"],
  ["O=C(O)c1ccccc1/C=C1\\Cc2cc3c(cc2C1=O)CCC3", "> 100 µM"],
  ["COc1cc(Nc2cc(Cl)cc(Cl)c2)nc(N)n1", "> 100 µM"],
  ["COC(=O)/C=C1\\C(CO[Si](C)(C)C(C)(C)C)OC(n2ccc(=O)[nH]c2=O)C1O (configuration not stated)", "50.9 µM"],
  ["O=C1CSC(c2cc3cc(Br)ccc3nc2Cl)N1c1ccc(Cl)cc1 (configuration not stated)", "> 100 µM"]
]}

Turning now to a further molecule:
Inquiry: Supply TGI value. Item: `O=C1c2ccccc2N1C(=O)c1ccccc1[N+](=O)[O-]`
Reply text: > 100 µM
